test: Primary qHTS for inhibitors of La Crosse Virus (LACV) - induced cell death in SH-SY5Y cells (AID 1508616); conditions: SH-SY5Y LACV cytopathicity rescue, ATP luminescence, 6 d; series mostly up to 9.63 µM;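 further: top concentration of the series differs between compounds; higher means more rescue of cells from virus-induced death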
Results filed as inconclusive are left out. The source made the active and inactive calls. The call rests on the fitted dose curve; in most records, active means well fitted inhibition curve with a large enough effect; inconclusive means small, poorly fitted or top-dose-only effect; inactive means no such curve, though single readings can be large or run the other way.

# Compound, outcome
data = [
    ("O=S1(=O)N(CCN2CC=C(c3c[nH]c4cc(F)ccc34)CC2)c2cccc3c2N1CCC3", "inactive"),
    ("Cc1cc([C@@H]2CCCN2C)on1", "inactive"),
    ("C[C@H](N)CN1CCc2ccc(Br)cc21", "inactive"),
    ("C=CCN(C1=NCCN1)c1c(Cl)cccc1Cl", "inactive"),
    ("Nc1ccc(CCN2CCN(c3cccc(C(F)(F)F)c3)CC2)cc1", "inactive"),
    ("COc1cc(CC(C)N)c(OC)cc1I (centres undefined)", "inactive"),
    ("C[C@@H]1[C@@H]2Cc3ccc(O)cc3[C@@]1(C)CCN2CC1CC1", "inactive"),
    ("CN1CCC(c2c[nH]c3ccc(O)cc23)CC1", "inactive"),
    ("NC(Cc1cc(O)c(O)cc1O)C(=O)O (centres undefined)", "inactive"),
    ("NC(N)=Nc1ccc2[nH]c3c(c2c1)C[C@@]1(O)[C@H]2Cc4ccc(O)c5c4[C@@]1(CCN2CC1CC1)[C@H]3O5", "inactive"),
    ("CC(=O)NBr", "inactive"),
    ("NC(CCCCCP(=O)(O)O)C(=O)O (centres undefined)", "inactive"),
    ("CN1CC[C@@]2(C)c3cc(OC(=O)Nc4ccccc4)ccc3N(C)[C@@H]12", "inactive"),
    ("Clc1cc(I)cc(Cl)c1NC1=NCCN1", "inactive"),
    ("N[C@@H](CCl)C(=O)O", "inactive"),
    ("COc1ccc2[nH]c3c(c2c1)CCNC3", "inactive"),
    ("CC(N)Cc1c[nH]c2ccc(OCc3cccs3)cc12 (centres undefined)", "inactive"),
    ("CC(=O)c1c(O)c(C)c(O)c(Cc2c(O)c3c(c(C(=O)/C=C/c4ccccc4)c2O)OC(C)(C)C=C3)c1O", "inactive"),
    ("NC(=O)CI", "inactive"),
    ("CC(C)(O)[C@@H]1C2OC(=O)[C@@H]1[C@]1(O)C[C@H]3O[C@]34C(=O)O[C@H]2[C@]14C (tested in a mixture with another compound)", "inactive"),
    ("CCCCCCC(C)(C)c1ccc([C@@H]2C[C@H](O)CC[C@H]2CCCO)c(O)c1", "inactive"),
    ("C=CCN1C[C@@H](C)N([C@H](c2ccc(C(=O)N(CC)CC)cc2)c2cccc(OC)c2)C[C@@H]1C", "inactive"),
    ("CC(N)c1cccc(Cl)c1Cl (centres undefined)", "inactive"),
    ("C#CCN[C@H](C)Cc1ccccc1", "inactive"),
]
